Target: FAM19A5 protein (Homo sapiens, UniProt Q7Z5A7)
Assay: competitive inhibition ELISA; competitor: coated LRRC4B(453-576)-hFc
Measure name: Inhibition rate (%)
Answers are plain numbers, in %.

> print(dat)
                             binder  units.of.measure  value.reported
1  GYTYFTTVNVETLETQPGEE [FB-20[N8]]                 %            -2.4

Parameter requested: Inhibition rate (%). Apply to each item below.
1. GYTAFTTVTVETLETQPGEE [FB-20[A3]]
2. GYTYFTTVTVETAETQPGEE [FB-20[A12]]
3. GATYFTTVTVETLETQPGEE [FB-20[A1]]

1. 0
2. 56.2
3. 3.6
